Just for reference, PubChem BioAssay (NCATS) is where these values come from.

Tested on: AA1029
Measurement notes: qHTS profiling for inhibitors of Plasmodium falciparum proliferation (AID 504749); further: nearly all actives have a fitted effect of over 60% in size
Cond: P. falciparum in erythrocytes, SYBR Green DNA, 72 h; series mostly up to 28.7 µM
Records with an inconclusive call do not appear. Activity calls are given as the source filed them. The call rests on the fitted dose curve; in most records, active means well fitted inhibition curve with a large enough effect; inconclusive means small, poorly fitted or top-dose-only effect; inactive means flat fitted curve, though single readings scatter.
Classes used: Yes = active, No = inactive

CCCCCCCCCCCCCCCCO No
Cc1ccc(O)c([C@H](CCN(C(C)C)C(C)C)c2ccccc2)c1 Yes
CCN(CC)CCNC(=O)c1cc(Br)c(N)cc1OC No
O=C(O)CCC(=O)Nc1ccc(S(=O)(=O)Nc2nccs2)cc1 No
COc1ccc(C(Cl)=C(c2ccc(OC)cc2)c2ccc(OC)cc2)cc1 Yes
Cc1nc(-c2ccc(Cl)cc2)oc1COC(C)(C)C(=O)O No
NCCNC(=O)c1ccc(Cl)cn1 No
CCOC(=O)[C@H](CCc1ccccc1)N[C@@H](C)C(=O)N1[C@H](C(=O)O)C[C@H]2CCCC[C@@H]21 No
Cc1c[nH]c2ccccc12 No
NS(=O)(=O)c1ccc(Cl)c(S(N)(=O)=O)c1 No
O=C(O)c1ccc(S(=O)(=O)N(Cl)Cl)cc1 No
CN(Cc1ccc(C(C)(C)C)cc1)Cc1cccc2ccccc12 No
